- assayed_target: T1, gamma-delta T cell receptor on human γδ T cells (human)
- T1 construct: also called AG000003021 (γδ T cells)
- assay_details: flow cytometry, dose-response binding at 37 C, human γδ T cells
experimental_readout: Max. Activity (fold over background)

1. VG9B114 (antibody, human IgG1, kappa, V domains shown, IgG1, kappa) VH: EVQLVESGGDLVQPGGSLRLSCAASGFTFSRYDMHWVRQATGKGLEWVSAIGSAGDTYYPGSVKGRFTISRENAKNSLYLQMNSLRAGDTAVYYCARGKWELRDAFDIWGQGTMVTVSS VL: DIVMTQSPSFLSASVGDRVTITCRASQGIHSYLAWYQQKPGKAPKLLIYVASTLQSGVPSRFSGSRSGTEFTLTISSLQPEDFATYYCQQLNSYPYTFGQGTKLEIKR ... 1980
2. VG9B208 (antibody, human IgG1, lambda, V domains shown, IgG1, lambda) VH: QVQLQESGPGLVKPSETLSLTCTVSGGSISGYYWSWIRQPPGKGLELIGYIFYSGSINYNPSLKNRVTISLDTSKNQFSLKLTSVTAADTAVYYCARVGKWELRSSFDIWGQGTMVTVSS VL: QSVLTQPPSVSAAPGQKVTISCSGSTSNIGNNDVSWYQQLPGTAPKLLIYDNNKRPSGIPDRFSGSKSGTSATLGITGLQTGDEADYYCGTWDSSLSVWVFGGGTKLTVLG ... 2310
3. VG9B81 (antibody, human IgG1, kappa, V domains shown, IgG1, kappa) VH: QVQLQESGPGLVKPSETLSLTCSVSGGSINTYYWSWFRQPAGKGLELIGRIYTSDNTNYNPSLKSRVTMSVDTSKNQFSLKLSSVTAADTAVYYCARYNWNYWYFDLWGRGTLVTVSS VL: DIQMTQSPSFLSASVRDRVNITCRASQGISSYLAWYQQKPGKAPKLLIYTASTLQSGVPSRFSGSGSGTEFTLTISSLQPEDFATYYCQHLNSYPYTFGQGTKVEIKR ... 1770
4. VG9B131 (antibody, human IgG1, kappa, V domains shown, IgG1, kappa) VH: QVQLVQSGGTLVQPGGSLRLSCAVSGFTFSSYDMNWVRQAPGKGLEWVSYISSSSTAKYYADSVKGRFTISRDNAKNSLYLQMNSLWDEDTAVYYCAREDIVVVTPILQHWGQGTLVTVSS VL: EIVMTQSPATLSLSPGERATLSCRASQSVSNYLAWYQQKSGQAPRLLIYDASNRATGIPARFSGSGSGTDFTLTISSLEPEDFAVYCCQQRSNWTFGQGTRLEIKR ... 1400
